- Experimental Target: GluN1/2B NMDA receptor (GluN1a + GluN2B) (Rattus norvegicus, UniProt P35439+Q00960)
- Construct: cRNAs 1:1-3 in Xenopus oocytes; heterotetramer
- Sequence (Q00960 27-1482, other chains not shown): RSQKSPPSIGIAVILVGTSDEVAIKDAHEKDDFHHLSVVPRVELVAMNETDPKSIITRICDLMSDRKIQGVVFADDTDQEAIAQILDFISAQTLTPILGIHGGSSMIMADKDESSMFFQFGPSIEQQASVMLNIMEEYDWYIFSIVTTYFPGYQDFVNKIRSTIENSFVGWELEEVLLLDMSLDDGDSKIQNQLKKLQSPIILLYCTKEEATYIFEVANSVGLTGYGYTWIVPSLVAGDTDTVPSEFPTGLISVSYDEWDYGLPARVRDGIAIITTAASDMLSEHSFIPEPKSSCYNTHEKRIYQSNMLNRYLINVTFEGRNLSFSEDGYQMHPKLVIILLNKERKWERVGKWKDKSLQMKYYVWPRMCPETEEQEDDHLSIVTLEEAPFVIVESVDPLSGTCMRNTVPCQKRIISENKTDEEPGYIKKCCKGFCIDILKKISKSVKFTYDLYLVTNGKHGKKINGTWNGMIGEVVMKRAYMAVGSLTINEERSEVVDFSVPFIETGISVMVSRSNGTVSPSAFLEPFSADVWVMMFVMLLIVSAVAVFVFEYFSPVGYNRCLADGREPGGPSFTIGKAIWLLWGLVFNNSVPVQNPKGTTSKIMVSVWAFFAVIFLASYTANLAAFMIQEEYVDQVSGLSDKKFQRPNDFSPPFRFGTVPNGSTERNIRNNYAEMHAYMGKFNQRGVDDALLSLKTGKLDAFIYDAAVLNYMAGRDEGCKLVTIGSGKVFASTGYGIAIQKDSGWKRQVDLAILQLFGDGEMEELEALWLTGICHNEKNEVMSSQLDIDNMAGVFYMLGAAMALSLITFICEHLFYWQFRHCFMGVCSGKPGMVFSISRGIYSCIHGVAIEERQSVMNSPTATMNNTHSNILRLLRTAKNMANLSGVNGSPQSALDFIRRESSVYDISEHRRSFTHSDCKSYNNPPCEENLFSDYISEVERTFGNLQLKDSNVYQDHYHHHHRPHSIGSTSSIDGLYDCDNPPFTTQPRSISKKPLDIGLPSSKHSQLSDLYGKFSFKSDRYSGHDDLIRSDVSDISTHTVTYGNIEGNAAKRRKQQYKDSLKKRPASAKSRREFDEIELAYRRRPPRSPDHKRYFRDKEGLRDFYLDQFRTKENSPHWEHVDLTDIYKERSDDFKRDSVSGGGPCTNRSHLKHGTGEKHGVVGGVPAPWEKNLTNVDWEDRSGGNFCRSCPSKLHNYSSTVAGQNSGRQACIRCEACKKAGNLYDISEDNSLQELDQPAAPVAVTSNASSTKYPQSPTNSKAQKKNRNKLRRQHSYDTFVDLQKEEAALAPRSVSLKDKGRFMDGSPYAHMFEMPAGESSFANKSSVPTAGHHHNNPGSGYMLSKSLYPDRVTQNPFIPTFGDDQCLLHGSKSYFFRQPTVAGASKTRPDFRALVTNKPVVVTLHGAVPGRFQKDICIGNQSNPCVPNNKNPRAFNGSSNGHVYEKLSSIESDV
- Assay Overview: two-electrode voltage clamp, Xenopus oocytes
- Measurement Conditions: read-out: EC50 or IC50
Experimental Readout: IC50
Don't forget the unit after the number, please.

Specify IC50 for NC(CCCP(=O)(O)O)C(=O)O (racemic) , system GluN1/2B NMDA receptor (GluN1a + GluN2B) (Rattus norvegicus, UniProt P35439+Q00960).
35.7 µM

Switching to the query record.
// fetch IC50 for "O=C(O)c1cc(O)c2c(Cl)cc(Cl)cc2n1" ; system: GluN1/2B NMDA receptor (GluN1a + GluN2B) (Rattus norvegicus, UniProt P35439+Q00960)
4.63 µM
